- study_target: GIM-1 in E. coli SNO3 containing pET26b-blaGIM-1 (Pseudomonas aeruginosa)
- Sequence (Q704V1 19-250 limits assumed): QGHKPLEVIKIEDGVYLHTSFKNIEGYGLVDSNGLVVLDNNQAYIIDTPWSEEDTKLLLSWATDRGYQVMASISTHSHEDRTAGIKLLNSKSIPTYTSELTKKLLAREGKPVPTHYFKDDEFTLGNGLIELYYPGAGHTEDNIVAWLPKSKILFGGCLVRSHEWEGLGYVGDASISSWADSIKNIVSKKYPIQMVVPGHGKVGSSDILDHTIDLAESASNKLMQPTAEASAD
- assay_text: MBL inhibition in whole E. coli cells expressing MBL (nitrocefin hydrolysis)
- Type: cell-based
- condition_set: whole cell, test substance 250 μM
Known inhibition at 250 µM of a selection of molecules
Enter your answer as a number in %; do not include the unit.

Example entries begin here.
molecule	inhibition at 250 µM, %
COc1cc(Cn2cc(CN(Cc3ccccn3)Cc3ccccn3)nn2)cc(OC)c1OC [Example 7]	12.5
COc1ccc(-n2cc(CN(Cc3ccccn3)Cc3ccccn3)nn2)c(OC)c1 [Example 11]	16.5

QUERY: Need inhibition at 250 µM of C[C@@H](N)C(=O)N[C@H](C)C(=O)NCCc1ccc(NC(=O)CN(Cc2ccccn2)Cc2ccccn2)cc1.Cl [Example 24] , thanks.
RESULT: 69.2

QUERY: Entry COc1ccc(Cn2cc(CN(Cc3ccccn3)Cc3ccccn3)nn2)cc1Br [Example 9] please
RESULT: 14.8

###

Known inhibition at 250 µM of a selection of compounds
- study_target: VIM-2 in E. coli SNO3 containing pET26b-blaVIM-2 (Escherichia coli)
- assay_text: MBL inhibition in whole E. coli cells expressing MBL (nitrocefin hydrolysis)
- Type: cell-based
- condition_set: whole cell, test substance 250 μM
Enter your answer as a number in %; do not include the unit.

compound	unit_of_measure	inhibition at 250 µM
COc1ccc(Cn2cc(CN(Cc3ccccn3)Cc3ccccn3)nn2)cc1 [Example 3]	%	74
COc1ccc(Cn2cc(CN(Cc3ccccn3)Cc3ccccn3)nn2)cc1[N+](=O)[O-] [Example 8]	%	83
COc1ccc(Cn2cc(CN(Cc3ccccn3)Cc3ccccn3)nn2)cc1Br [Example 9]	%	84.2

QUERY: Need inhibition at 250 µM of COc1cc(Cn2cc(CN(Cc3ccccn3)Cc3ccccn3)nn2)cc(OC)c1OC [Example 7] , thanks.
RESULT: 75.3

QUERY: Entry COc1cc(-n2cc(CN(Cc3ccccn3)Cc3ccccn3)nn2)cc(OC)c1OC [Example 5] please
RESULT: 73.8

###

- study_target: GIM-1 in E. coli SNO3 containing pET26b-blaGIM-1 (Pseudomonas aeruginosa)
- assay_text: MBL inhibition in whole E. coli cells expressing MBL (nitrocefin hydrolysis)
- Format: cell-based
- condition_set: whole cell, test substance 250 μM
Known inhibition at 250 µM of a selection of compounds
# output: numeric value plus its unit

substance_smiles	study_target	inhibition at 250 µM
O=[N+]([O-])c1ccc(Cn2cc(CN(Cc3ccccn3)Cc3ccccn3)nn2)cc1	GIM-1 in E. coli SNO3 containing pET26b-blaGIM-1 (Pseudomonas aeruginosa)	20.6%
COc1ccc(Cn2cc(CN(Cc3ccccn3)Cc3ccccn3)nn2)cc1[N+](=O)[O-]	GIM-1 in E. coli SNO3 containing pET26b-blaGIM-1 (Pseudomonas aeruginosa)	22.2%

QUERY: Need inhibition at 250 µM of `FC(F)(F)c1ccc(-n2cc(CN(Cc3ccccn3)Cc3ccccn3)nn2)cc1` , thanks.
RESULT: 15.7%

###

- study_target: VIM-2 in E. coli SNO3 containing pET26b-blaVIM-2 (Escherichia coli)
- assay_text: MBL inhibition in whole E. coli cells expressing MBL (nitrocefin hydrolysis)
- Assay type: cell-based
- condition_set: whole cell, test substance 250 μM
reported_property: inhibition at 250 µM (%)
Enter your answer as a number in %; do not include the unit.

QUERY: Need inhibition at 250 µM of `C[C@@H](N)C(=O)N[C@H](C)C(=O)NCCc1ccc(NC(=O)CN(Cc2ccccn2)Cc2ccccn2)cc1.Cl` , thanks.
RESULT: 98.2

QUERY: Entry `COc1ccc(-n2cc(CN(Cc3ccccn3)Cc3ccccn3)nn2)cc1` please
RESULT: 82

QUERY: Entry `COc1ccc(-n2cc(CN(Cc3ccccn3)Cc3ccccn3)nn2)c(OC)c1` please
RESULT: 75.1

QUERY: Entry `FC(F)(F)c1ccc(-n2cc(CN(Cc3ccccn3)Cc3ccccn3)nn2)cc1` please
RESULT: 64.2

QUERY: Entry `O=[N+]([O-])c1ccc(Cn2cc(CN(Cc3ccccn3)Cc3ccccn3)nn2)cc1` please
RESULT: 82.1

###

- study_target: VIM-2 (Escherichia coli)
- assay_text: IC50 determination against purified MBL, nitrocefin reporter substrate
- Type: biochemical
- condition_set: purified enzyme 1 nM, nitrocefin 50 μM, 25° C.
Mark each entry class 1 if its IC50 sits below 20 µM, and class 0 for all others.

QUERY: Does `O=[N+]([O-])c1ccc(Cn2cc(CN(Cc3ccccn3)Cc3ccccn3)nn2)cc1` have IC50 strictly under 20 µM?
RESULT: class 0

QUERY: Entry c1ccc(CN(CCN(Cc2ccccn2)Cc2ccccn2)Cc2ccccn2)nc1 [TPEN, reference compound] please
RESULT: class 1

QUERY: Entry `COc1ccc(Cn2cc(CN(Cc3ccccn3)Cc3ccccn3)nn2)cc1[N+](=O)[O-]` please
RESULT: class 1

QUERY: Entry `COc1ccc(-n2cc(CN(Cc3ccccn3)Cc3ccccn3)nn2)cc1` please
RESULT: class 0

QUERY: Entry `COc1cc(Cn2cc(CN(Cc3ccccn3)Cc3ccccn3)nn2)cc(OC)c1OC` please
RESULT: class 1

###

- study_target: GIM-1 in E. coli SNO3 containing pET26b-blaGIM-1 (Pseudomonas aeruginosa)
- assay_text: MBL inhibition in whole E. coli cells expressing MBL (nitrocefin hydrolysis)
- Format: cell-based
- condition_set: whole cell, test substance 250 μM
Known inhibition at 250 µM of a selection of molecules
Enter your answer as a number in %; do not include the unit.

substance_smiles	reported_property	value_measured
COc1ccc(Cn2cc(CN(Cc3ccccn3)Cc3ccccn3)nn2)cc1	inhibition at 250 µM	15.7

QUERY: Need inhibition at 250 µM of `COc1ccc(-n2cc(CN(Cc3ccccn3)Cc3ccccn3)nn2)cc1` , thanks.
RESULT: 20.6

QUERY: Entry `COc1cc(-n2cc(CN(Cc3ccccn3)Cc3ccccn3)nn2)cc(OC)c1OC` please
RESULT: 14.4
